// provenance: patent US5919668A

measurement.protocol: Reducing power by the Somogyi-Nelson method, represented in terms of DE
Assay type: physicochemical
run.parameters: high-purity preparations, Somogyi-Nelson method
observation.type: DE of saccharide preparation
Answer field: number only, no words.

Memo: OC[C@H]1O[C@H](O[C@H]2O[C@H](CO)[C@@H](O[C@H]3O[C@H](CO)[C@@H](O[C@H]4O[C@H](CO)[C@@H](O[C@H]5O[C@H](CO)[C@@H](O)[C@H](O)[C@H]5O)[C@H](O)[C@H]4O)[C@H](O)[C@H]3O)[C@H](O)[C@H]2O)[C@H](O)[C@@H](O)[C@@H]1O , reported DE of saccharide preparation: 0.10

Given item OC[C@H]1O[C@H](O[C@H]2O[C@H](CO)[C@@H](O[C@H]3O[C@H](CO)[C@@H](O[C@H]4O[C@H](CO)[C@@H](O[C@H]5O[C@H](CO)[C@@H](O[C@H]6O[C@H](CO)[C@@H](O[C@H]7O[C@H](CO)[C@@H](O)[C@H](O)[C@H]7O)[C@H](O)[C@H]6O)[C@H](O)[C@H]5O)[C@H](O)[C@H]4O)[C@H](O)[C@H]3O)[C@H](O)[C@H]2O)[C@H](O)[C@@H](O)[C@@H]1O , the value recorded as its DE of saccharide preparation is 0.23
